- Tested on: Delta-type opioid receptor (Rattus norvegicus, UniProt P33533)
- Sequence (P33533 whole entry): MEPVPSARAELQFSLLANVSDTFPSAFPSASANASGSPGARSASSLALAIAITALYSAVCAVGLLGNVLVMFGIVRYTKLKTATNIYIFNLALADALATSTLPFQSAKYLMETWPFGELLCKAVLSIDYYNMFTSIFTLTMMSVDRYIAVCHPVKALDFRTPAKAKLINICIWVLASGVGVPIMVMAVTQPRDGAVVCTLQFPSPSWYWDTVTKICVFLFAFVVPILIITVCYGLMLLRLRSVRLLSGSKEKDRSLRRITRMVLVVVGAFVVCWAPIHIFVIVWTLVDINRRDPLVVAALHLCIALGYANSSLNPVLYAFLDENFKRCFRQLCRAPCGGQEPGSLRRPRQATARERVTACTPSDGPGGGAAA
- Measurement description: Displacement of [3H]DADLE from morphine-sensitive Opioid receptor delta 1 (presence of 300 nM DELT-II) of rat brain membranes
- Format: cell membranes, Membrane
Endpoint: Ki (nM)

>  <Compound>
Oc1ccc2c3c1OC1c4[nH]c5c(-c6ccccc6)cccc5c4C[C@@]4(O)[C@@H](C2)N(CC2CC2)CC[C@]314 (some centres undefined)

>  <Reported measurement>
51.4

$$$$
>  <Compound>
Oc1ccc2c3c1OC1c4[nH]c5cccc(-c6ccccc6)c5c4C[C@@]4(O)[C@@H](C2)N(CC2CC2)CC[C@]314 (some centres undefined)

>  <Reported measurement>
284

$$$$
>  <Compound>
Oc1ccc2c3c1OC1c4[nH]c5ccc(OCc6ccccc6)cc5c4C[C@@]4(O)[C@@H](C2)N(CC2CC2)CC[C@]314 (some centres undefined)

>  <Reported measurement>
14.9

$$$$
>  <Compound>
Oc1ccc2c3c1OC1c4[nH]c5cccc(OCc6ccccc6)c5c4C[C@@]4(O)[C@@H](C2)N(CC2CC2)CC[C@]314 (some centres undefined)

>  <Reported measurement>
74.1

$$$$
>  <Compound>
Oc1ccc2c3c1OC1c4[nH]c5c(Oc6ccccc6)cccc5c4C[C@@]4(O)[C@@H](C2)N(CC2CC2)CC[C@]314 (some centres undefined)

>  <Reported measurement>
18.7

$$$$
>  <Compound>
Oc1ccc2c3c1OC1c4[nH]c5cccc(Oc6ccccc6)c5c4C[C@@]4(O)[C@@H](C2)N(CC2CC2)CC[C@]314 (some centres undefined)

>  <Reported measurement>
395

$$$$
>  <Compound>
Oc1ccc2c3c1OC1c4[nH]c5cc(-c6ccccc6)ccc5c4C[C@@]4(O)[C@@H](C2)N(CC2CC2)CC[C@]314 (some centres undefined)

>  <Reported measurement>
299

$$$$
>  <Compound>
Oc1ccc2c3c1OC1c4[nH]c5cc(OCc6ccccc6)ccc5c4C[C@@]4(O)[C@@H](C2)N(CC2CC2)CC[C@]314 (some centres undefined)

>  <Reported measurement>
201

$$$$
>  <Compound>
Oc1ccc2c3c1O[C@H]1c4[nH]c5ccccc5c4C[C@@]4(O)[C@@H](C2)N(CC2CC2)CC[C@]314

>  <Reported measurement>
12.3

$$$$
>  <Compound>
Oc1ccc2c3c1OC1c4[nH]c5cc(Oc6ccccc6)ccc5c4C[C@@]4(O)[C@@H](C2)N(CC2CC2)CC[C@]314 (some centres undefined)

>  <Reported measurement>
89.4

$$$$
>  <Compound>
Oc1ccc2c3c1OC1c4[nH]c5ccc(-c6ccccc6)cc5c4C[C@@]4(O)[C@@H](C2)N(CC2CC2)CC[C@]314 (some centres undefined)

>  <Reported measurement>
121

$$$$
>  <Compound>
Oc1ccc2c3c1OC1c4[nH]c5ccc(Oc6ccccc6)cc5c4C[C@@]4(O)[C@@H](C2)N(CC2CC2)CC[C@]314 (some centres undefined)

>  <Reported measurement>
204

$$$$
>  <Compound>
Oc1ccc2c3c1OC1c4[nH]c5ccc(/C=C/c6ccccn6)cc5c4C[C@@]4(O)[C@@H](C2)N(CC2CC2)CC[C@]314 (some centres undefined)

>  <Reported measurement>
17.4

$$$$
>  <Compound>
Oc1ccc2c3c1OC1c4[nH]c5c(OCc6ccccc6)cccc5c4C[C@@]4(O)[C@@H](C2)N(CC2CC2)CC[C@]314 (some centres undefined)

>  <Reported measurement>
73.3

$$$$
